- ASSAY NAME: protein stability index of a GFP-peptide fusion (yeast GPS) (PSI 1-4); higher = more stable; sorted into four equal gates, so the index is relative within each strain
- CONDITION DESCRIPTION: pdr5∆
ENDPOINT LABEL: protein stability index

# BIOPOLYMER SEQUENCE, ASSAY VALUE
data = [
    ("YGTENKDGEDIIFNYVP [CSL4]", 3.21),
    ("IVDDYWESLAKKQNLSS [SWP82]", 2.93),
    ("NSISDFLGEQVNEPTKN [RPN1]", 3.15),
    ("TEKNREIYKQLNDRQEE [YIL149C/MLP2]", 3.41),
    ("IIKENVKVARLAGKYIP [FAS1]", 1.6),
    ("KKAVVKGTNGKKALKVR [RPL25]", 2.24),
    ("FQLPTTCVSMAPIQLKI [RGR1]", 1.76),
    ("LRGSLLSRKPSDNKKRS [RPC82]", 3.6),
    ("ADNNDLQESINHVMYTE [ECM29]", 3.02),
    ("MSDSPLSKRQKRKSAQE [SMC4]", 3.16),
    ("KITAKTQHEEEEEQDTG [IRR1]", 3.16),
    ("MKPKAEKESDDGLLEYL [SMC4]", 3.37),
    ("VIDGKLPFMQNAGPNSN [YDL088C/ASM4]", 3.04),
    ("ADGSSYMEQGNNKIITL [SKI6]", 3.07),
    ("YKCTAAMEKYLLSKSKI [MTW1]", 2.58),
    ("VKCKMSALQQIMYQQML [SNF2]", 2.56),
    ("NTSFSFTKPPANETDKR [YOR098C/NUP1]", 3.11),
    ("SFVHGVVGQLFQIDNDN [SMC2]", 3.13),
    ("TNTHPNFLSKIRNINVQ [SNF2]", 1.68),
    ("MVSHKTARGKAALERLK [RPL16B]", 2.74),
    ("VAARMFHILLKLILEWV [ECM29]", 1.64),
    ("DPQHKAIRRDARYNWIC [RPL15A]", 3.31),
    ("IHSKSMSVERGIRWELI [RPT1]", 3),
    ("NSIYCPTQTVAELDLMS [RPN6]", 1.72),
    ("FLSSFDDVLQTIITDCA [YJL039C/NUP192]", 2.07),
    ("PDELIKAGVEAISQSLR [PRE5]", 2.91),
    ("VQVRSVMDPITSKRKAE [DIS3]", 2.41),
    ("YLEELQRKKQSDVLRFL [RPL15A]", 2.25),
    ("RGGFGGRNRGRPNRRGP [RPS2]", 3.28),
    ("IEKFEQVPDSLDDQIFV [RPN6]", 3.35),
    ("SRGLFEKKLMQDNKQLY [YDL116W/NUP84]", 3.06),
    ("QKRIENGGNSVITLAEY [SRP68]", 2.89),
    ("LVSDSEIIDLNLHSFTK [POP6]", 2.81),
    ("EILVTELTAQGYDPALL [RPN2]", 3.36),
    ("VKGETRIQNRVKLGLNS [PRP8]", 2.7),
    ("DCQFWETWLGSQCRLHE [PRE2]", 2.1),
    ("GNIVKEFENKFQNSYKP [YMR129W/POM152]", 3.14),
    ("SMILIQQTEKLNPQVAD [RPN2]", 1.67),
    ("RTLLTEEIEPKLEKLRN [SMC2]", 3),
    ("KGKARLGTLVNQKTSAV [RPL8A]", 2.38),
    ("EVTKGEKTYTKAPKIQR [RPS6A]", 3.19),
    ("KSKILRKVVFPFQLDVA [UBP6]", 2.39),
    ("TEQFCATLNYIDKNHGF [SRB7]", 2.99),
    ("SYFSPINSSNEALVQAF [YCG1]", 2.19),
    ("LKWSACTSLMDIIVAIK [IRR1]", 2.72),
    ("QVLSQSADPSLLIDQFS [SWI1]", 2.96),
    ("LYSVKFAPAHLGLKLAC [YGL100W/SEH1]", 1.98),
    ("YIDIRTNNVLRKLGLLG [MTW1]", 1.76),
    ("DSLKKLLPQWDDDQIES [ARP9]", 3.17),
    ("KSNGSSDDDNIGQSEEL [ISW2]", 3.44),
    ("DSFTMPNISHSNIDYQT [SNF2]", 2.12),
    ("TNKLLFKRVSQTFEAKL [NUT1]", 1.7),
    ("SPVRSDSADVPAFSNSN [YMR153W/NUP53]", 3.07),
    ("QDKSKKIMNVTTDSLTK [YMR129W/POM152]", 2.97),
    ("LLRYGGAFTIALAYAGT [RPN2]", 2.27),
    ("VKDKQSKVSDDSESESG [RPN8]", 2.78),
    ("QFLEQGLSIHPTQITQY [SRP68]", 2.22),
    ("SKLNELKKELKLLAKEL [SMC2]", 2.9),
    ("IMVLDASIGQAAEQQSK [SRP54]", 2.78),
    ("VLDKMHARARGPRAVLT [RET1]", 3.22),
]
